Taken from the supplement of paper PMC9262897.

# System: E. coli TESEC Mtb DapB
# assaySummary: growth (OD600 after 10 h); higher = more growth (less inhibition)
# experimentalSetup: arabinose induction (level): High; compound 0.1 mM; raw OD600 reference: median of DMSO wells […], cell-free background 0.041
Where a name gives a salt, the structure may show the parent alone.
For each entry below, report its growth value.

Answer for every listed entry: what is its growth? The entries follow.
1. COC(=O)Nc1nc2cc(Sc3ccccc3)ccc2[nH]1
2. NC1CCN(c2c(F)cc3c(=O)c(C(=O)O)cn(C4CC4)c3c2Cl)C1 (configuration not stated)
3. CCC(=O)O[C@]1(C(=O)SCF)[C@H](C)C[C@H]2[C@@H]3C[C@H](F)C4=CC(=O)C=C[C@]4(C)[C@@]3(F)[C@@H](O)C[C@@]21C [Fluticasone propionate]
4. CC(C)(C)NC[C@H](O)COc1cccc2c1CCCC2=O [(-) -Levobunolol hydrochloride]
5. CC(C)(Oc1ccc(CCNC(=O)c2ccc(Cl)cc2)cc1)C(=O)O [Bezafibrate]
6. CCCCOc1ccc(OCCCN2CCOCC2)cc1 [Pramoxine hydrochloride]
7. N/C(=N\C(=O)c1nc(Cl)c(N)nc1N)NCc1ccccc1 [Benzamil hydrochloride]

1: 0.2; 2: 0.0489; 3: 0.199; 4: 0.203; 5: 0.184; 6: 0.183; 7: 0.213
